// data source = ChEMBL document CHEMBL4428066

# measured target: Tyrosine-protein kinase BTK (Homo sapiens)
# Sequence (Q06187 whole entry): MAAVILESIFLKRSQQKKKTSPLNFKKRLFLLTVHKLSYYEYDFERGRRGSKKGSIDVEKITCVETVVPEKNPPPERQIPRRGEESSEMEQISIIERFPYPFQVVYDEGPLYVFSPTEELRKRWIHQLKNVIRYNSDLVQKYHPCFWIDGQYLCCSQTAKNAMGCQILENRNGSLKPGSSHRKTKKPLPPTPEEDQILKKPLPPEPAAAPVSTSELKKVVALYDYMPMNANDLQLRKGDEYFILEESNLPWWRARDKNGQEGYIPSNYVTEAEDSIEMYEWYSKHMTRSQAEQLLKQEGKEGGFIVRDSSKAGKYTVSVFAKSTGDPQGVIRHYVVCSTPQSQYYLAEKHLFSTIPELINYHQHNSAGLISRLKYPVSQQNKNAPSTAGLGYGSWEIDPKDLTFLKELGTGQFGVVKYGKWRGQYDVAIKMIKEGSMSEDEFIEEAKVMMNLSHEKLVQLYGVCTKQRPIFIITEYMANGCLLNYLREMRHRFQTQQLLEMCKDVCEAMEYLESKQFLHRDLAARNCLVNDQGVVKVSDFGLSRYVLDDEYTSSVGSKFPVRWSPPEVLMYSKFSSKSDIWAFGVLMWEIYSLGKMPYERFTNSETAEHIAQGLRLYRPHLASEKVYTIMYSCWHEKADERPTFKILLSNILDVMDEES
# procedure summary: Inhibition of BTK in human RamosB cells assessed as suppression of BCR/anti-IgM stimulated calcium flux pre-incubated for 1 hr followed by BCR/anti-IgM stimulation
# Assay type: cell-based
pIC50: −log10 of the molar value.

cpd smiles: Cc1c(-c2ccc(C(N)=O)c3[nH]c4cc(C(C)(C)O)ccc4c23)cccc1N1Cc2ccc(F)cc2C1=O
pIC50: 7.32
--
cpd smiles: Cc1c(-c2ccc(C(N)=O)c3[nH]c4cc(C(C)(C)O)ccc4c23)cccc1N1Cc2ccccc2C1=O
pIC50: 6.81
--
cpd smiles: Cc1c(-c2ccc(C(N)=O)c3[nH]c4cc(C(C)(C)O)ccc4c23)cccc1N1CCc2ccccc2C1=O
pIC50: 7.59
--
cpd smiles: Cc1c(-c2ccc(C(N)=O)c3[nH]c4cc(C(C)(C)O)ccc4c23)cccc1-n1cnc2cccc(F)c2c1=O
pIC50: 7.74
--
cpd smiles: Cc1c(-c2ccc(C(N)=O)c3[nH]c4cc(C(=O)N5CCN(C)CC5)ccc4c23)cccc1N1Cc2ccccc2C1=O
pIC50: 6.62
--
cpd smiles: Cc1c(-c2ccc(C(N)=O)c3[nH]c4cc(C(C)(C)O)ccc4c23)cccc1-n1cnc2ccc(F)cc2c1=O
pIC50: 7.40
--
cpd smiles: Cc1c(-c2ccc(C(N)=O)c3[nH]c4cc(CO)ccc4c23)cccc1-n1cnc2ccccc2c1=O
pIC50: 7.66
--
cpd smiles: Cc1c(-c2ccc(C(N)=O)c3[nH]c4cc(C(C)(C)O)ccc4c23)cccc1-n1ccc2ccccc2c1=O
pIC50: 6.84
--
cpd smiles: Cc1c(-c2ccc(C(N)=O)c3[nH]c4cc(C(C)(C)O)ccc4c23)cccc1-n1cnc2c(F)cccc2c1=O
pIC50: 7.47
--
cpd smiles: Cc1c(-c2ccc(C(N)=O)c3[nH]c4cc(C(C)(C)O)ccc4c23)cccc1-n1cnc2cc(F)ccc2c1=O
pIC50: 7.62
